biological target: UniProt P32245; assay: Competitive inhibition binding assay using [I125]-NDP-α-MSH, HEK-293 membranes, recombinant hMC4-R; design: expressed in transfected cells; host or cells: HEK-293; details: 1 μM compound
Sequence (P32245 whole entry): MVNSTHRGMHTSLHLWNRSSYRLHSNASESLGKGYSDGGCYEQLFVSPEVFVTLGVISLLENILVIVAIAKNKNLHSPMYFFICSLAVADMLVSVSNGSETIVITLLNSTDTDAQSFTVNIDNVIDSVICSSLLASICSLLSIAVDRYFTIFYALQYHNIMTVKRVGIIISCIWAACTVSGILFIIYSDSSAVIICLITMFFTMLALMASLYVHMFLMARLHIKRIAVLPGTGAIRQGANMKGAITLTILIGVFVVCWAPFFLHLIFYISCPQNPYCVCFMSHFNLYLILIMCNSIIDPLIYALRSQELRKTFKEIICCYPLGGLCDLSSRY
# inhibition at 1 µM annotations
Write down the numeric answer in % and omit the unit.

Below, each entry is followed by its recorded inhibition at 1 µM result.
Cc1ccc(C[C@@H](N)CN2C[C@@H](C)N(C(=O)Cc3ccc4ccccc4c3)C[C@@H]2CCCNC2CCCCC2N)c(C)c1 (stereo partly shown) : 88
C[C@@H]1CN(C(=O)[C@H](N)Cc2ccc(Cl)c(Cl)c2)[C@@H](CCCNCCN)CN1C(=O)[C@H](N)Cc1ccc(Cl)c(Cl)c1 : 96
CC(C)C[C@@H]1CN(C[C@H](N)Cc2ccc(Cl)cc2Cl)[C@@H](CCCNCCCCN)CN1C(=O)Cc1ccc2ccccc2c1 : 91

Q. Given "CC(C)C[C@@H]1CN(C(=O)[C@H](N)Cc2ccc(Cl)cc2Cl)[C@@H](CCCNCCN)CN1C(=O)[C@H](N)Cc1ccc(Cl)cc1Cl" , report its inhibition at 1 µM on UniProt P32245.
A. 89

Q. Under UniProt P32245, report inhibition at 1 µM for "Cc1ccc(C[C@H](CN2C[C@@H](C)N(C(=O)Cc3ccc4ccccc4c3)C[C@@H]2CCCN(C)CCN(C)C)N(C)C)c(C)c1"
A. 49

Q. With UniProt P32245 as the test system, provide measured inhibition at 1 µM for this compound: "Cc1ccc(C[C@H](CN2C[C@@H](C)N(C(=O)Cc3ccc4ccccc4c3)C[C@@H]2CCCN2CCN(C)CC2)N(C)C)c(C)c1"
A. 47

Q. Name the value of inhibition at 1 µM reported for "Cc1ccc(C[C@@H](N)CN2C[C@@H](C)N(C(=O)Cc3ccc4ccccc4c3)C[C@@H]2CCCNCCN)c(C)c1" when tested on UniProt P32245.
A. 92
